Each recorded value in this set is attributed to the supplement of paper PMC10567573.

B1: BRF1 (parent)
chain: FVESSGGGSSAVGQFVSLDGAGKT

variants of: B1; experiment: protein stability index of a GFP-peptide fusion (GPS, HEK-293T) (PSI 1-6); higher = more stable; settings: c terminus: a fixed tail appended;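 note: lentivirally expressed fusions sorted by FACS into six bins by GFP to DsRed ratio, PSI derived from sequencing read proportions per bin multiplied by bin number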
Label TRUE when protein stability index is at or above 2; anything below gets FALSE.

Some solved cases for reference:
Prompt: Is the recorded value of protein stability index equal to or greater than 2 for this variant? FVESSGGGSSAVGQFVSGDGAGKT [L18G]
Completion: TRUE

Prompt: Is the recorded value of protein stability index equal to or greater than 2 for this variant? FNESSGGGSSAVGQFVSLDGAGKT [V2N]
Completion: TRUE

Prompt: Is the recorded value of protein stability index equal to or greater than 2 for this variant? FVESSGGGSSAVGQKVSLDGAGKT [F15K]
Completion: TRUE

Prompt: Is the recorded value of protein stability index equal to or greater than 2 for this variant? FVESSMGGSSAVGQFVSLDGAGKT [G6M]
Completion: FALSE

Prompt: Is the recorded value of protein stability index equal to or greater than 2 for this variant? FVESSGGGSSAVGQFVSLDGGGKT [A21G]
Completion: TRUE

Prompt: Is the recorded value of protein stability index equal to or greater than 2 for this variant? FRESSGGGSSAVGQFVSLDGAGKT [V2R]
Completion: TRUE

Prompt: Is the recorded value of protein stability index equal to or greater than 2 for this variant? FVESRGGGSSAVGQFVSLDGAGKT [S5R]
Completion: FALSE

Prompt: Is the recorded value of protein stability index equal to or greater than 2 for this variant? FVESYGGGSSAVGQFVSLDGAGKT [S5Y]
Completion: FALSE

Continuing:
Prompt: Is the recorded value of protein stability index equal to or greater than 2 for this variant? FVESSGGGSSAVRQFVSLDGAGKT [G13R]
Completion: TRUE

Prompt: Is the recorded value of protein stability index equal to or greater than 2 for this variant? FVESSGGGSSAVGQFVSLDGAGRT [K23R]
Completion: TRUE

Prompt: Is the recorded value of protein stability index equal to or greater than 2 for this variant? FVESSGGGSSAVGQRVSLDGAGKT [F15R]
Completion: TRUE

Prompt: Is the recorded value of protein stability index equal to or greater than 2 for this variant? FVESSGGGSSAVGQFVSLDNAGKT [G20N]
Completion: TRUE

Prompt: Is the recorded value of protein stability index equal to or greater than 2 for this variant? FVESSGGGSSAVNQFVSLDGAGKT [G13N]
Completion: FALSE
